Where do these numbers come from? They come from the supplement of paper PMC6555819.

Test system: RARa homodimer (NR concentration 270 nM)
Assay: PBM binding z-score (relative to random genomic background probes); higher = stronger binding; sequences stand for … in GC…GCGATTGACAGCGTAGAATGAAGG
Consider the following sequences; for each one, report its PBM binding z-score.
Answers are plain numbers.

Use the examples below as a reference point.
GCGACTGGGGCAAAGCAGGTTACCATAAGGTTGG
-0.818
GCTTACGGGTAAAAGGTTATAGCATGAATAGAAT
0.86
TTACCAAGGTGAAGGTCGTTGGTCCCTCTGTAGA
-0.694

// input: 3 sequences below; output: PBM binding z-score for each
1. CCTCGGAGGACCACAGGAGGTCAGAGCTGCCAGA
2. CCGACTGGGGCATAAGGTCACCATAAGCCAGCCC
3. CTTAGCAGGCCAGGGTCACTCAAGCATTTCGCTT

1. 0.245
2. 2.35
3. -0.241

====

Test system: RARg:RXRa (NR concentration 270 nM, RXRa partner concentration 90 nM)
Test: PBM binding z-score (relative to random genomic background probes); higher = stronger binding; sequences stand for … in GC…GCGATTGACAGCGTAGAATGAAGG
For each entry below, report its PBM binding z-score value.
One number for each entry.

GCTACAGGGTCAGCTAGAGGCCAGAGTATGGAAA
6.74

# batch: return PBM binding z-score for each of the 5 sequences below
1. CCTTACGGGTCATTGACAGGTTATAGCATTTGGA
2. CAAACTAGGTCAAAGGTCAAAGTCGAGCCAACCA
3. TCGAATAGGTTAGTCGGGGCATTCAGCCAACATA
4. TAGCCTAGGTCATGGCCCAGTATACCACGCGAAC
5. ATCGAAAGGTCGAAGGTGAGTGTACCCACCCGAA

1. 5.75
2. 8.83
3. 0.415
4. 4.47
5. 4.02

====

Test system: VDR homodimer (NR concentration 270 nM)
Experiment: PBM binding z-score (relative to random genomic background probes); higher = stronger binding; sequences stand for … in GC…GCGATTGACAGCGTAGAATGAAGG
metric-name: PBM binding z-score

Some entries whose results are on file:
AGAATGAGGTTAAGATGAGGGAAACAGAATACAT
0.657
ATCTCTAGGGAAAAGTTCAGTGAATCCCGAGGAT
1.22
CCTACTGGGCCGCGAAAGGTCATTGATTCAGTGA
2.12
ATATGTAGGTTAGCTGGGGTCAATCAGACTAGGC
3.44
ACAGACAGGTGATGAAGCTAACTCAGGCTATCAT
-0.132

# batch size: 5; output PBM binding z-score per entry
1. ATATGTAGCTTAGCTGGGGTCATTCAGACTAGGC
2. ATCTCTAGGTAACCAAGTTCAATGAATGCCGAAC
3. TAGACTAGGTCATTGGGCCAGTATAGTACGCATC
4. AGAATTAGGTTACCAAAGATCAGGGAAACGCTTG
5. ATCTCTAGGTAACCAAGTTCAGTAAATGCCGAAC

[3.19, 3.84, 1.26, -0.053, 2.48]

Consider the following items and state reported PBM binding z-score for each.
1. ACAGACAAGTGAGTGAAGGTAACTCAGCTGGACG
2. CCTACTGGGCCATTCAGAGGTAATTGATCATATG
3. TTAGCAAGGTGAAAGGTCGTTGATGCACGCCTTG
4. CCTGCTAGGTCATCGTCAGCTAATCTACAGTATG
5. AGAACGAGGGCACGCTGAGTCGATAGCAGAGTAG
6. TCTCGGAGGACACGAAGGTCAGAGCATTCCAGAG
7. CCTACTGGGCCAAAGGGCATTGATTCCAATGCTC

-0.445
-0.114
1.18
0.596
0.912
1.04
-0.17

Please state, for each entry, its recorded PBM binding z-score.
1. TCATATAGGTAAACAGGTGACAGTCCGTAAGTTA
2. CAAACTAGGTCACGAATGGTCAAAGTCGAATGAC
3. CCAGTCAGGTGAAAGGTAACTCAGTCTGGTACGC
4. GCAGACAGGTGAAACGCAGGTAACACAGGGTGGC
5. TAGCCTAGGTCAGATCGTGCCAGTATACGCTATA

0.168
0.784
-0.00335
-0.401
-0.325

====

System: RARb:RXRa (NR concentration 270 nM, RXRa partner concentration 90 nM)
Test: PBM binding z-score (relative to random genomic background probes); higher = stronger binding; sequences stand for … in GC…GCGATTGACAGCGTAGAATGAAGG
metric-name: PBM binding z-score
Numbers only.

Some entries whose results are on file:
ACTACTTGGTCAGCTGAGGTCACACACAATTCGG
3.59
CCTCGGAGGACAGAAGTTCAGAGCTGTCCGCTTT
1.59
GATACAGGGTCAAGGGCAGAGTACGCGTATTGAT
4.77
CGTCAAAGTTCAACTAAGGTAGCGTAAAGCACGC
5.15

Record PBM binding z-score for all entries; do not skip any.
1. CTCTAAAGGTCGTGCTCAGGTGAGTATACCAAAC
2. CCTACAGGGTCAGCTAGGCCAGAGTAGGGACGGC

[3.93, 4.03]

====

Test system: THRa homodimer (NR concentration 90 nM)
Experiment: PBM binding z-score (relative to random genomic background probes); higher = stronger binding; sequences stand for … in GC…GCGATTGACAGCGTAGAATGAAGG
Note to self: values exactly at 0.6 are Met. So PBM binding z-score at or above 0.6 is Met, below is Not met.

These recorded examples may help you get a feel for the data.
ACTATTAGTTGAGACGAGGGCGACCGATAGGTTG
Not met
CCTTACGGGTCGCTCCAGGTTATAGCATCGGAGT
Not met

Quick check: does `CAAACTAGGTCACCGGAAGGCCAAAGTCCGCATG` have PBM binding z-score greater than or equal to 0.6?
Met

Does `TCATATAGGTAAAAGGTGAAAGTGGGTGTGGTAA` have a reported PBM binding z-score of at least 0.6?
Met

Test whether the sequence `AAAACGAGGGCACGCTGAGTTGATAGCAGAGTAG` records PBM binding z-score of 0.6 or higher.
Not met

====

Exercise: for every item that follows, state its recorded PBM binding z-score.
Tested on: PPARg:RXRa 30nM:10nM, anti-RXR (NR concentration 30 nM, RXRa partner concentration 10 nM)
Assay: PBM binding z-score (relative to random genomic background probes); higher = stronger binding; sequences stand for … in GC…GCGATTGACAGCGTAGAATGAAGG
Answers are plain numbers.

The examples below pair each entry with its known result.
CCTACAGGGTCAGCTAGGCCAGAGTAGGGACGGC
0.464
TCTTTTAGATCAAGCAGGTTAAGAAAGCCTGAGT
3.39
TCATATAGGTAAAAGGAGAAAGTCGGTGTGGTAA
4.87

I would be grateful if you could provide PBM binding z-score for each of the following entries.
1. ACTAGTTGGGCAGCTGAGGTCACACACAATTCGG
2. CCTAGTTGGTCAGGAGGGCACACACCGGATATGA
3. ATATGTAGGTTAAGGATCATTCAGGTTGGTTCGC
4. TGAATGAGGTTAAAGATTAGGGAACGTGGCGTCG
5. ACTATTCGTTGACTTAGGGCAACCGATACGACGC
6. AGTCAAAGTTCATCTAGGTAATGTAAGATATGCT
7. ATATGTAGGTTAAGGGTCATCCAGGTTGGTTCGC

1: 0.192; 2: 0.0866; 3: 6.08; 4: 2.32; 5: 0.272; 6: 3.67; 7: 11.2

Quick request: PBM binding z-score for each listed item, please.
1. CCTCGGAGGAGAACAGGAGGTCAGAGCTGCCAGA
2. ATCTCTAGGTAAGACTCAGTTCAGTGTAGAACGC

1. -0.552
2. 0.182

Quick one: give me PBM binding z-score for each item below, same order please.
1. TCGAGTAGGTTAGTCGGGGCCTTCAGCCAACATA
2. GCGACTGGGGGATCAGCAGGTTACCATAACTTAA
3. TCTATTAGTTGATCAGGGCAACCGAAACAGCGGA
4. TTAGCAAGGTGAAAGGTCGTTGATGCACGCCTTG

1. 0.448
2. 0.24
3. 3.78
4. 8.33

Here are 7 sequences. What values of PBM binding z-score were reported for them?
1. TCTGCTAGGTCAACAATGGTCAGCTAATCTGCTA
2. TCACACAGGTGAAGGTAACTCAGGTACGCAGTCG
3. GCTAGTTGGTCAGTAAAAGGGCACACACCGGTCG
4. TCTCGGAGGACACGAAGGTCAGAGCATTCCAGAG
5. AGTCAAAGTTCATCTAGGTAACGTATGATATGCT
6. ATACCAAGGTGACCGTGAGGTCGTTGATACTAAC
7. CGTCCAAGGTCCAAGGTCAGTGAAGAGATGACGG

1: 2.07; 2: 2.94; 3: 0.0544; 4: 2.05; 5: 3.52; 6: 0.228; 7: 0.473

Each sequence below has a reported value. Please supply its PBM binding z-score.
1. TCATATAGGTAAATGCTACGTGAAAGTCCGATCT
2. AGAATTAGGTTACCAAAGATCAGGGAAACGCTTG
3. CGAACTAGATCATTGACAGGACAGTGAATAGTAA

1: 3.64; 2: 1.37; 3: 0.0975
